System: OVCAR-8 ovarian
measurementNotes: NCI-60 one-dose screen, 48 h (100 = growth as untreated, 0 = no growth, -100 = all killed)
measurementConditions: 10 µM unless noted
This is part of a sample that, as a whole, favours compounds with a hit. Of some 83,000 tested, about 20% had one in any assay.
Mark each entry yes if its growth sits below 80%, and no for all others.

>  <molecule>
Cc1cc(N2CCCCC2)nc(NC2CCCC(Nc3ccnc4cc(Cl)ccc34)C2)n1 (stereo not given)

>  <groupLabel>
yes

$$$$
>  <molecule>
Cc1cc(N2CCOCC2)nc(N[C@@H]2CCC[C@H](Nc3ccnc4cc(Cl)ccc34)C2)n1

>  <groupLabel>
yes

$$$$
>  <molecule>
CC1=CC(=NN=c2cc(C)n([O-])c(C)c2)C=C(C)[N+]1=O

>  <groupLabel>
no

$$$$
>  <molecule>
CC(=O)c1cc2c(N)c(C(=O)Nc3cccc4ccccc34)sc2nc1C

>  <groupLabel>
yes

$$$$

meta.source: PubChem BioAssay (NCI)
